# Test system: Rattus norvegicus
# PROTOCOL_DETAILS: Ulcerogenicity in Wistar rat assessed as lesion score at 100 mg/kg, po after 6 hrs
# Type: toxicity, organism-based
# Set-up: dose 100 mg/kg, route oral
# TEST_SETTINGS: in vivo
Let's look at some compounds and their measured UI.
Numeric answer only, unit mm assumed.

Please review the entries below; each comes with its answer.
CS(=O)(=O)c1ccc(C2=C(c3ccccc3)C(=O)OC2)cc1    3
CCCCCCOc1cc(C(C)=O)ccc1NS(C)(=O)=O    4
CCCCOc1cc(C(C)=O)ccc1N    2

Let us move to another entry and its UI.
UI measured on CCCCCOc1cc(C(C)=O)ccc1NS(C)(=O)=O = 4
